Just for reference, PubChem BioAssay AID1159580 is where these values come from.

assay: chemical genetic growth profiling, strain panel (AID 1159580);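 further: tested at 20 µM; growth read once vehicle control cultures reached saturation at 30 °C; 1 = growth at the plate median or of vehicle wells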; details: S. cerevisiae deletion strains, growth OD, locus YOR136W, strain idh2
The campaign covered roughly 5,500 compounds. About 2,000 (36%) were called active. Inconclusive results (about 18%) are left out. No stated cut-off is given here; in the data, active means normalized growth mostly below about 0.91 (no sharp cut-off); inconclusive means no clear call, values can overlap the other calls; inactive means mostly above about 0.92. Some of the results follow.
Reply using exactly one outcome from True for active, False for inactive

molecule: COc1cc2ccc(=O)oc2cc1O
class: False

molecule: c1ccc2c(c1)[nH]c1cnccc12
class: False

molecule: C[C@]12CCC3C(CC[C@H]4C[C@@H](O)CC[C@]34C)C1CCC2=O (stereo partly specified)
class: False

molecule: O=c1ccc2cc(O[C@@H]3O[C@H](CO)[C@@H](O)[C@H](O)[C@H]3O)c(O)cc2o1
class: False

molecule: COc1ccc2c(c1)[nH]c1c(C)nccc12
class: False

Next, consider the following molecule.
Which outcome was assigned to "COc1ccc2ccc(=O)oc2c1CC=C(C)C" in this test? True

* * *

assay: chemical genetic growth profiling, strain panel (AID 1159580); conditions: S. cerevisiae deletion strains, growth OD, locus YOR270C, strain vph1
Hit rate of the full screen: of about 5,500 compounds, about 2,000 (36%) were called active. Another 18% or so got no clear call; they are omitted. No stated cut-off is given here; in the data, active means normalized growth mostly below about 0.91 (no sharp cut-off); inconclusive means no clear call, values can overlap the other calls; inactive means mostly above about 0.92. The list shows a part of the results.
Give one outcome, nothing more. List: 1 (yes) (active), 0 (no) (inactive)

Answered examples (4):
compound: COc1cc(O)c(C(C)=O)c(OC)c1
class: 0 (no)

compound: COc1ccc(Cc2nccc3cc(OC)c(OC)cc23)cc1OC
class: 0 (no)

compound: COc1cc(OC)c(C(C)=O)c(O)c1C
class: 1 (yes)

compound: CCOc1ccc(Cc2nccc3cc(OCC)c(OCC)cc23)cc1OCC
class: 0 (no)

# fetch the recorded call for CCCC(=O)Nc1ncnc2c1ncn2C1O[C@@H]2COP(=O)(O)O[C@H]2[C@H]1OC(=O)CCC (some centres not stated) here 0 (no)

Could you kindly confirm the outcome this assay logged for "COc1c(O)cc(O)cc1O" ? 0 (no)

So what was the verdict on "C=C(C)c1cc2cc(C(C)=O)c(O)cc2o1" in this test? 0 (no)

* * *

experiment: chemical genetic growth profiling, strain panel (AID 1159580); settings: S. cerevisiae deletion strains, growth OD, locus YER133W, strain GLC7, stronger effect = lower value
About 2,000 (36%) of roughly 5,500 compounds were called active. Inconclusive results (about 18%) are left out. This is one part of the list.
measurement-name: normalized growth
Lab note: jot down the number only; don't add units.

Observe how each entry below is paired with its result.
compound: O=C(SCc1c(Cl)cccc1Cl)c1ccc([N+](=O)[O-])o1
measurement-name: normalized growth
measured-result: 0.553
--
compound: N#C/C(=N/Nc1ccc(Cl)cc1)C(=O)C1CC1
measurement-name: normalized growth
measured-result: 0.626
--
compound: N#C/C(=C\C=C\c1ccccc1)c1nc2ccccc2[nH]1
measurement-name: normalized growth
measured-result: 0.834
--
compound: O=C(OCc1ccc(Oc2ccc(Cl)cc2Cl)c([N+](=O)[O-])c1)c1ccc([N+](=O)[O-])o1
measurement-name: normalized growth
measured-result: 0.995
--
compound: CC(Oc1ccc(Cl)cc1Cl)C(=O)NNC(=S)Nc1ccccc1 (stereo unspecified)
measurement-name: normalized growth
measured-result: 0.966

Dear colleague, please send me the reported normalized growth for CC1CCc2c(sc3ncnc(Sc4ccccc4)c23)C1 (stereo unspecified) when you can. 0.956

State, in one line, measured normalized growth of CCOC(=O)C(O)(c1ccc(NC(=O)Nc2ccc(Cl)cc2)cc1)C(F)(F)F (stereo unspecified) 1

Given "CC(=O)Oc1ccc2c(=O)c(Oc3ccc(Cl)cc3)c(C)oc2c1" , respond with its normalized growth. 0.939

Provide one value: measured normalized growth of "N#C/C(=N/Nc1ccc(Cl)cc1)C(N)=S" 0.194

Annotate the compound "COC(=O)c1ccc(Oc2c(C(F)(F)F)oc3cc(O)ccc3c2=O)cc1" with its measured normalized growth. 0.929

Name the recorded normalized growth of the item CCOC(=O)C(NC(C)=O)(Nc1ccc(F)c(Cl)c1)C(F)(F)F (stereo unspecified) in your answer. 0.994

* * *

experiment: chemical genetic growth profiling, strain panel (AID 1159580); conditions: S. cerevisiae deletion strains, growth OD, locus YOL012C, strain htz1
Hit rate of the full screen: of about 5,500 compounds, about 2,000 (36%) were called active. Another 18% or so got no clear call; they are omitted. Some of the results follow.
measurement-name: normalized growth
// print number alone

molecule: CN1CCN(C(c2ccccc2)c2ccccc2)CC1
normalized growth: 1.39
//
molecule: O=c1cc(-c2ccc(O)cc2)oc2cc(O[C@@H]3O[C@H](CO)[C@@H](O)[C@H](O)[C@H]3O[C@@H]3OC[C@](O)(CO)[C@H]3O)cc(O)c12
normalized growth: 0.956
//
molecule: O=c1[nH]cnc2nc[nH]c12
normalized growth: 1.01
//
molecule: O=C1OC(=O)C2C3CCC(O3)C12 (stereo unspecified)
normalized growth: 0.735
//
molecule: c1coc(CNc2ncnc3nc[nH]c23)c1
normalized growth: 0.989
//
molecule: Nc1ncnc2nc[nH]c12
normalized growth: 0.719

Turning to the following molecule.
Could you please provide reported normalized growth for "COc1ccc(Cc2nccc3cc(OC)c(OC)cc23)cc1OC" ? Thanks! 1.11

* * *

assay: chemical genetic growth profiling, strain panel (AID 1159580); details: S. cerevisiae deletion strains, growth OD, locus YLR371W, strain rom2, stronger effect = lower value
The campaign covered roughly 5,500 compounds. About 2,000 (36%) were called active. About 18% were inconclusive and are not listed. Some of the results follow.
This section presents compounds with their documented normalized growth values.

compound: O=c1c(-c2ccc3c(c2)OCO3)coc2cc(O)ccc12
normalized growth: 0.981 (inactive)
--
compound: COP(=S)(OC)SCn1nnc2ccccc2c1=O
normalized growth: 0.98 (inactive)
--
compound: CCCCCN=C(N)N/N=C\c1c[nH]c2ccc(OC)cc12
normalized growth: 1.03 (inactive)
--
compound: CC(C)=CCc1c(O)cc2occ(-c3ccc4c(c3)OCO4)c(=O)c2c1O
normalized growth: 1.04 (inactive)
--
compound: COc1c(O)cc(O)cc1O
normalized growth: 0.984 (inactive)

Answer with the recorded normalized growth for the compound listed here: "CC1(C)C=Cc2c(cc3occ(-c4ccc5c(c4)OCO5)c(=O)c3c2O)O1" 0.92 (inactive)

* * *

experiment: chemical genetic growth profiling, strain panel (AID 1159580);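 further: tested at 20 µM; growth read once vehicle control cultures reached saturation at 30 °C; 1 = growth at the plate median or of vehicle wells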; details: S. cerevisiae deletion strains, growth OD, locus YKL068W, stronger effect = lower value
About 2,000 (36%) of roughly 5,500 compounds were called active. Roughly 18% stayed inconclusive and do not appear here. This is one part of the list.
Lab note: cut-off is 1. Strictly less in normalized growth is Criterion met. Exactly 1 or more is Criterion not met.

structure-notation: COc1ccc2c(=O)c(-c3cc4c(cc3OC)OCO4)coc2c1
class: Criterion not met

Given "CC(C)=CCOc1cc2oc(=O)ccc2cc1O" , is recorded normalized growth strictly lower than 1? Criterion met

* * *

assay: chemical genetic growth profiling, strain panel (AID 1159580);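 further: tested at 20 µM; growth read once vehicle control cultures reached saturation at 30 °C; 1 = growth at the plate median or of vehicle wells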; details: S. cerevisiae deletion strains, growth OD, locus YIR030C, strain dcg1, stronger effect = lower value
Out of some 5,500 compounds screened, about 2,000 (36%) were called active. Not shown: some 18% with an inconclusive outcome. Some of the results follow.
Please respond with true when measured normalized growth is strictly beneath 1, and with false in all other cases.

structure-notation: C=C(C)c1cc2cc(C(C)=O)c(O)cc2o1
class: true

Please find the next compound below.
Does this compound meet the criterion normalized growth < 1? "COc1ccc2[nH]cc(CCNC(C)=O)c2c1" false

* * *

test: chemical genetic growth profiling, strain panel (AID 1159580);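 further: tested at 20 µM; growth read once vehicle control cultures reached saturation at 30 °C; 1 = growth at the plate median or of vehicle wells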; conditions: S. cerevisiae deletion strains, growth OD, locus YJL092W, strain hpr5, stronger effect = lower value
The whole screen tested about 5,500 compounds, of which about 2,000 (36%) were called active. Inconclusive results (about 18%) are left out. The list shows a part of the results.
measurement-name: normalized growth
No unit in the answer, please; the number alone is enough.

Example results:
compound: CN(C)c1nc(N(C)C)nc(N(C)C)n1
normalized growth: 0.988
--
compound: Cn1c([N+](=O)[O-])cnc1COC(N)=O
normalized growth: 1.01
--
compound: CC1=C(C(=O)O)N2C(=O)[C@@H](NC(=O)[C@H](N)C3=CCC=CC3)C2SC1 (some centres not stated)
normalized growth: 1.02
--
compound: CCOc1ccc(Cc2nccc3cc(OCC)c(OCC)cc23)cc1OCC
normalized growth: 0.99
--
compound: FC(F)(F)COCC(F)(F)F
normalized growth: 1.02
--
compound: CC(=O)Oc1ccc2c(c1)CCC1C2CCC2(C)C1CC(OC(C)=O)C2OC(C)=O (configuration not stated)
normalized growth: 1.01

Provide one value: measured normalized growth of CCC(=O)O[C@H]1CCC2C3CCc4cc(O)ccc4C3CC[C@@]21C (some centres not stated) 0.984

Input "Fc1ccc(C(c2ccc(F)cc2)N2CCN(C/C=C/c3ccccc3)CC2)cc1" , output reported normalized growth. 0.282

Hello, please tell me recorded normalized growth for this one: "CN1CCN(C(c2ccccc2)c2ccccc2)CC1" 0.991

Please report the measured normalized growth for "O=c1n(CCCN2CCN(c3cccc(Cl)c3)CC2)nc2ccccn12" 0.97

Given C[C@]12CCC3c4ccc(O)cc4CCC3C1CC[C@@H]2OC(=O)CCC1CCCC1 (some centres not stated) , respond with its normalized growth. 1.01
